IC50 data for Dipeptidyl peptidase 4 (Sus scrofa, UniProt P22411) follow.
Just the number please, in nM, no unit attached.

Here's what some known entries look like.
smilesrepresentation=COCCNC(=O)CN1CCC(N(N)CC(=O)N2CSC[C@H]2C#N)CC1 number=1030
smilesrepresentation=N#C[C@@H]1CSCN1C(=O)CN(N)C1CCN(S(=O)(=O)c2ccc(Cl)cc2)CC1 number=1450

We now examine a further compound.
Q) Recall the reported IC50 of N#C[C@@H]1CSCN1C(=O)CN(N)C1CCN(C(=O)N2CCOCC2)CC1 on Dipeptidyl peptidase 4 (Sus scrofa, UniProt P22411) and write it down.
Sequence (P22411 whole entry): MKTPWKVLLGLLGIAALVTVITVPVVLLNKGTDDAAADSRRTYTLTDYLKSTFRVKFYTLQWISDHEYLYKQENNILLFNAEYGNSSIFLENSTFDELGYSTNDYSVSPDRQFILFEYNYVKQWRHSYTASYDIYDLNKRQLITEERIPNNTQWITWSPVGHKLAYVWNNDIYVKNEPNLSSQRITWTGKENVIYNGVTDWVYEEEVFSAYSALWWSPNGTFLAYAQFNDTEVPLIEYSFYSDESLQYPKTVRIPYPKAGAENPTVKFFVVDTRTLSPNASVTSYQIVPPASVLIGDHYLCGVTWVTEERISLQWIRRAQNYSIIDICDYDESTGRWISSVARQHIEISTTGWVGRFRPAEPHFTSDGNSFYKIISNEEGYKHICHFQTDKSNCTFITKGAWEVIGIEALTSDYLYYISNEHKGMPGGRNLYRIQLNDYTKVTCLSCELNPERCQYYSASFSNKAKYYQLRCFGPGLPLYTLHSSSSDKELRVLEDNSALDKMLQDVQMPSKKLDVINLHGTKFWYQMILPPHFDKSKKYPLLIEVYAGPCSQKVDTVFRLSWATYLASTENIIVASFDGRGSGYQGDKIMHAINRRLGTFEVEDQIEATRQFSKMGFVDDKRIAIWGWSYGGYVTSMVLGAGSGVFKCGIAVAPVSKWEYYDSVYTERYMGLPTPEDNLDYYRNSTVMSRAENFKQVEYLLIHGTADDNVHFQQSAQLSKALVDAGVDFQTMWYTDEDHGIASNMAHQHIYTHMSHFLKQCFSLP
A) 790

###

pIC50 data for Dipeptidyl peptidase 4 (Sus scrofa, UniProt P22411) follow.
Expect pIC50 as a plain number equal to -log10 of the molar concentration.

The cases that follow already have their pIC50 on record.
smilesrepresentation=N#C[C@@H]1CSCN1C(=O)CN(N)C1CCN(CC(=O)NC2CCCCC2)CC1 number=6.30
smilesrepresentation=N#C[C@@H]1CSCN1C(=O)CN(N)C1CCN(CC(=O)Nc2ncc(Br)s2)CC1 number=6.65

Now examine the next entry.
Q) State measured pIC50 of the molecule CCNN(CC(=O)N1CSC[C@H]1C#N)C1CCN(S(C)(=O)=O)CC1 with Dipeptidyl peptidase 4 (Sus scrofa, UniProt P22411).
A) 5.43

###

Target: Dipeptidyl peptidase 4 (Sus scrofa)
measuredMetric: IC50 (nM)
The reply should contain only the number, in nM.

Example cases with answers are listed next.
smilesrepresentation=N#C[C@@H]1CSCN1C(=O)CN(N)C1CCN(C(=O)c2cccc(Cl)c2Cl)CC1 testedtarget="Dipeptidyl peptidase 4 (Sus scrofa)" measuredmetric=IC50 number=1790
smilesrepresentation=N#C[C@@H]1CSCN1C(=O)CN(N)C1CCN(CC(=O)Nc2ccc(C(F)(F)F)cc2)CC1 testedtarget="Dipeptidyl peptidase 4 (Sus scrofa)" measuredmetric=IC50 number=308
smilesrepresentation=N#C[C@@H]1CCCN1C(=O)CN(N)C1CCN(CC(=O)Nc2ccc(Cl)cn2)CC1 testedtarget="Dipeptidyl peptidase 4 (Sus scrofa)" measuredmetric=IC50 number=3700

Q) State IC50 (Dipeptidyl peptidase 4 (Sus scrofa)) of N#C[C@@H]1CSCN1C(=O)CN(N)C1CCN(CC(=O)NCc2ccccc2F)CC1 .
A) 510

Q) Give IC50 for COc1ccc(S(=O)(=O)N2CCC(N(N)CC(=O)N3CSC[C@H]3C#N)CC2)cc1 tested on Dipeptidyl peptidase 4 (Sus scrofa).
A) 6680

Q) Under Dipeptidyl peptidase 4 (Sus scrofa), report IC50 for N#C[C@@H]1CSCN1C(=O)CN(N)C1CCN(Cc2ccc(F)cc2)CC1
A) 2230

Q) Please indicate recorded IC50 of N#C[C@@H]1CSCN1C(=O)CN(N)C1CCN(CC(=O)NC23CC4CC(CC(C4)C2)C3)CC1 measured with Dipeptidyl peptidase 4 (Sus scrofa).
A) 523

Q) Determine reported IC50 for CN(CCN)C(=O)N1CCC(N(N)CC(=O)N2CSC[C@H]2C#N)CC1 ; test system: Dipeptidyl peptidase 4 (Sus scrofa).
A) 1230

Q) Enter measured IC50, system Dipeptidyl peptidase 4 (Sus scrofa), for the compound shown: N#C[C@@H]1CSCN1C(=O)CN(N)C1CCN(CC(=O)Nc2ccc(F)c(Cl)c2)CC1
A) 359

Q) For Dipeptidyl peptidase 4 (Sus scrofa), give IC50 of the listed compound: N#C[C@@H]1CSCN1C(=O)CN(N)C1CCN(CC(=O)Nc2ccc(S(N)(=O)=O)cc2)CC1
A) 98

Q) Provide the reported IC50 (system: Dipeptidyl peptidase 4 (Sus scrofa)) for Cc1ccc(S(=O)(=O)N2CCC(N(N)CC(=O)N3CSC[C@H]3C#N)CC2)cc1
A) 2700

Q) Param request: IC50 | system Dipeptidyl peptidase 4 (Sus scrofa) | item N#C[C@@H]1CSCN1C(=O)CN(N)C1CCNCC1
A) 12100

Q) State recorded IC50 with Dipeptidyl peptidase 4 (Sus scrofa), entry N#C[C@@H]1CSCN1C(=O)CN(N)C1CCN(Cc2ccc([N+](=O)[O-])cc2)CC1 , no comment.
A) 698

Q) Tell me its IC50 on Dipeptidyl peptidase 4 (Sus scrofa): N#C[C@@H]1CSCN1C(=O)CN(N)C1CCN(Cc2cccnc2)CC1
A) 4770

Q) Under Dipeptidyl peptidase 4 (Sus scrofa), report IC50 for N#Cc1ccc(NC(=O)CN2CCC(N(N)CC(=O)N3CSC[C@H]3C#N)CC2)nc1
A) 110

Each recorded value in this set is attributed to ChEMBL document CHEMBL1153816.
